# target.entity: Atrial natriuretic peptide receptor 1 (Homo sapiens)
# measurement.protocol: Natriuretic polypeptide receptor (hNpr1) antagonism - Primary qHTS; further: nearly all actives have a fitted effect of over 60% in size; further: potency means the concentration at half of the fitted maximal effect
# run.parameters: HEK293 hNpr1 GloSensor cGMP, ANP-stimulated luminescence; series mostly up to 46.3 µM
# Source text: Pruritus or itch, is an irritating skin sensation that creates a need to scratch, and ranges from mildly unpleasant and passing to acute and persistent sensations. […] Stimulating these cells with the Npr1 agonists human NppA or NppB, luciferase-induced light production could be detected in a dose-dependent manner. […] PROTOCOL TABLES (as described by Inglese J, Shamu CE and Guy RK. 2007) SEQUENCE No. (e.g., 1, 2, 3, etc.); […] […] GloSensor post-hNppA luminescence measured using CCD-based camera (Viewlux). […]
In all, about 76,000 compounds went through this assay and about 1,200 (1.6%) were called active. Roughly 4% stayed inconclusive and do not appear here. Only a selection was taken, and actives are over-represented in it overall.
parameter.measured: Potency

INSERT INTO measurements (molecule, reading) VALUES
  ('Cc1ccccc1-c1cn[nH]c1C1CCN(C(=O)CCCn2cnnn2)CC1', 'inactive'),
  ('CC(C)(C)C(=O)N1CC[C@@H](CC(=O)O)[C@@H](CCN2CCN(c3cccc(C(F)(F)F)c3)CC2)C1', 'inactive'),
  ('COc1cccc(CC(=O)N2CCCC(c3nc(-c4cccnc4)no3)CCNC(=O)CC2)c1 (configuration not stated)', 'inactive'),
  ('CCCC(C)C(=O)N1CCCN(C)c2ccccc21 (configuration not stated)', 'inactive'),
  ('Cc1ccccc1-n1nc(C)c(CCC(=O)NC(C)C)c1Oc1cccc(F)c1', 'inactive'),
  ('COc1ccc2nc([C@H]3CCN(Cc4ccc(NC(C)=O)cc4)C3)[nH]c2c1', 'inactive'),
  ('O=c1[nH]c(C2CCN(Cc3ccc(F)cc3)CC2)nn1Cc1ccccc1', 'inactive'),
  ('CCN(Cc1ccncc1)C(=O)c1ccc2c(c1)C(O)CCCCCN2C (configuration not stated)', 'inactive'),
  ('O=C(Cc1c[nH]c2ncc(-c3ccccc3F)cc12)N1CCOCC1', '25.1 µM (active)'),
  ('Cc1cc(N2CCCC(Cn3cc(Cc4ccccc4)nn3)C2)nc(N)n1 (configuration not stated)', '7.94 µM (active)'),
  ('COc1ccc(CNC(=O)CN2C(=O)NC3(CCC(C(C)(C)C)CC3)C2=O)cc1OC (configuration not stated)', 'inactive'),
  ('c1ccc(Nc2cnc3ccc(-n4ccnc4)nn23)cc1', 'inactive'),
  ('CC(C)CN[C@H]1[C@H](O)[C@H](O)C[C@@H]1c1ccc(N2CCOCC2)nc1', 'inactive'),
  ('COCC1CN(Cc2ccc(OC)c(OC)c2Cl)CC12CCNCC2 (configuration not stated)', 'inactive'),
  ('Cc1ccnc(N2CCC(c3nnc(-c4ccc(F)cc4)o3)CC2)n1', 'inactive'),
  ('O=C(c1ccno1)N1C[C@@H]2OCC(=O)N(c3ccccc3)[C@@H]2C1', 'inactive'),
  ('CN(C(=O)Cc1c[nH]c2ncc(-c3cnn(C)c3)cc12)c1ccccc1', 'inactive'),
  ('COC(=O)c1c(NC(C)=O)c2cc(NC3CCCCCC3)cnc2n1CC1CCCO1 (configuration not stated)', 'inactive'),
  ('COc1ccccc1-c1cc(-c2cn[nH]c2)c2cncn2c1', 'inactive'),
  ('CC(C)(O)CCc1ccc(C(=O)NCc2nc(-c3ncccn3)no2)cc1', 'inactive'),
  ('Cc1noc(C)c1-c1cc(-c2ccccc2Oc2ccccc2)cn2cncc12', '28.2 µM (active)'),
  ('O=C(c1ccc2c(c1)OCO2)N1CCC2(CC1)CN(c1ccncn1)CC2CO (configuration not stated)', 'inactive'),
  ('CCc1nc(-c2c3n(c(=O)n(CCc4ccc(OC)cc4)c2=O)CCCC3)no1', 'inactive'),
  ('Cc1noc(C)c1-c1nccc2c(=O)cc(N3CCOCC3)oc12', 'inactive'),
  ('CC(C)N1C(=O)OCC12CCN(C(=O)c1ccc(Oc3ccccc3)cc1)C2 (configuration not stated)', 'inactive'),
  ('Cc1ccc2nc(C3CCCN(Cc4ccc(C#N)cc4)C3)[nH]c(=O)c2c1 (configuration not stated)', '14.1 µM (active)'),
  ('c1ccc(CO[C@@H]2CO[C@H]3[C@@H]2OC[C@@H]3n2nnnc2SCc2ccco2)cc1', '22.4 µM (active)'),
  ('CC(C)(CC(=O)O)CC(=O)N[C@H]1CO[C@H]2[C@@H]1OC[C@@H]2n1nnnc1-c1ccccc1', 'inactive'),
  ('Cc1cn2nc(C(=O)NCC(C)c3ccccc3)cc2c(N2CCCC2)n1 (configuration not stated)', 'inactive'),
  ('CC(C)(Oc1nn(CC2CCOCC2)c2ccccc12)C(=O)NCc1ccccc1', 'inactive'),
  ('CCc1nc2c(c(-c3ccc(Cl)cc3)n1)CN(CCC(C)C)CC2', 'inactive'),
  ('COCCC(=O)N1CCC2(CC1)CC(C(=O)N1CCOCC1)N(C)C2 (configuration not stated)', 'inactive'),
  ('O=c1[nH]c(C2CCCN(Cc3ccc(-c4ccsc4)cc3)C2)nc2ccc(F)cc12 (configuration not stated)', 'inactive'),
  ('O=c1n(CC2CC2)nc2n1CCC(NS(=O)(=O)c1cccc(F)c1)CC2 (configuration not stated)', 'inactive'),
  ('COc1ccc(-c2nc(C3CC(=O)N(c4ccc(F)c(Cl)c4)C3)no2)cc1OC (configuration not stated)', 'inactive'),
  ('COc1ccc(CN2C(=O)COC[C@H]2C(=O)Nc2ccc(C(C)C)cc2)c(OC)c1', 'inactive'),
  ('Cc1ccc(C2Cn3nnc(C(=O)N4CCC(C(=O)Nc5ccc(Cl)cc5)CC4)c3CO2)cc1 (configuration not stated)', 'inactive'),
  ('COc1ccc(C)cc1NC(=O)Nc1cccc(-c2ccc(N3CCCCC3)nn2)c1', '10 µM (active)'),
  ('COc1ccccc1Nc1cnc2ccc(-c3ccc(OC)c(OC)c3)nn12', 'inactive'),
  ('COCCNC(=O)Cc1c[nH]c2ncc(-c3cccnc3OC)cc12', 'inactive'),
  ('Cc1noc(C)c1-c1cnc2[nH]cc(CC(=O)N3CCOCC3)c2c1', '22.4 µM (active)'),
  ('CC(C)CNC(=O)CC(c1ccc(F)cc1F)c1c[nH]c2ccccc12 (configuration not stated)', 'inactive');

###

# target.entity: Atrial natriuretic peptide receptor 1 (Homo sapiens) (UniProt P16066)
# Sequence (P16066 whole entry, looked up): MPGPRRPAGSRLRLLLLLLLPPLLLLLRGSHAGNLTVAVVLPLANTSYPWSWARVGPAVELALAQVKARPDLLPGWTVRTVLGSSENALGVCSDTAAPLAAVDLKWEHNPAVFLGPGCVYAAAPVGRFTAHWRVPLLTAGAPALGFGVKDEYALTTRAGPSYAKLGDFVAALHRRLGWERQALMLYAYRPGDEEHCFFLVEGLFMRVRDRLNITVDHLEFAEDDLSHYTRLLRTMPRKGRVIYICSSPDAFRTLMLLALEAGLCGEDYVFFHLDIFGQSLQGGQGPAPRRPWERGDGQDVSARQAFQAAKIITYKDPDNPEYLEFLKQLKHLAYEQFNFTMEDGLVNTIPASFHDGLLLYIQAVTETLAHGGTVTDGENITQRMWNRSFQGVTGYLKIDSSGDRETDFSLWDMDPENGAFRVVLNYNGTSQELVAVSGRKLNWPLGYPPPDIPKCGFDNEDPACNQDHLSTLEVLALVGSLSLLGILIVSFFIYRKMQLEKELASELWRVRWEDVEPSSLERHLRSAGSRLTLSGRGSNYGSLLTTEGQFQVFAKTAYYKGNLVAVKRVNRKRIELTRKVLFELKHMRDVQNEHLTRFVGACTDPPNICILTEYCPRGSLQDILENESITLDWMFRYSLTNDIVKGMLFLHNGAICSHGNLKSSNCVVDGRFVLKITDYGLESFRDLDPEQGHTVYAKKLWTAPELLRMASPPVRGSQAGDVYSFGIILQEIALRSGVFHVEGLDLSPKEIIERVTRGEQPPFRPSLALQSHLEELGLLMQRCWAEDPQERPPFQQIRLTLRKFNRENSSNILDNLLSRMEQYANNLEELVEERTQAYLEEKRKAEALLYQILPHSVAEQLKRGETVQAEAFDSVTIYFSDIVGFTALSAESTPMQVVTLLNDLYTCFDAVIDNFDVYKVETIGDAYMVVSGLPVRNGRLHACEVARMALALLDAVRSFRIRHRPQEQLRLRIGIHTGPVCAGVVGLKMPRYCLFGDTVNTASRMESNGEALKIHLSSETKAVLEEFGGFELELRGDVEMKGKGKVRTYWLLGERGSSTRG
# measurement.protocol: Natriuretic polypeptide receptor (hNpr1) antagonism - Primary qHTS; further: nearly all actives have a fitted effect of over 60% in size
# run.parameters: HEK293 hNpr1 GloSensor cGMP, ANP-stimulated luminescence; series mostly up to 46.3 µM
About 1,200 (1.6%) of roughly 76,000 compounds were called active. About 4% were inconclusive and are not listed. The call rests on the fitted dose curve. The list comes from a sample in which actives are over-represented; it also holds close analogues and randomly drawn compounds.
Classes used: active, inactive

INSERT INTO measurements (compound, label) VALUES
  ('O=C(Nc1ccc(Oc2ccccc2)cc1)O[C@@H]1CO[C@H]2[C@@H]1OC[C@@H]2NS(=O)(=O)c1cccs1', 'active'),
  ('Cc1cc(C)c(CNC(=O)c2nc(-c3cccc(CO)c3)cc3c2ccn3C)c(=O)[nH]1', 'inactive'),
  ('O=C(Nc1ccc(Oc2ccccc2)cc1)O[C@@H]1CO[C@H]2[C@@H]1OC[C@@H]2NCC1CC1', 'inactive'),
  ('COc1ccc(-c2noc(CC3CCN(C(=O)Cc4ccc(C)cc4)CC3)n2)cc1', 'active'),
  ('N#Cc1cccc(CN2CCC(C3=NC(O)c4cc(F)ccc4N3)CC2)c1 (stereo not given)', 'active');

###

# target.entity: Atrial natriuretic peptide receptor 1 (Homo sapiens)
# measurement.protocol: Natriuretic polypeptide receptor (hNpr1) antagonism - Primary qHTS; further: nearly all actives have a fitted effect of over 60% in size
# run.parameters: HEK293 hNpr1 GloSensor cGMP, ANP-stimulated luminescence; series mostly up to 46.3 µM
The whole screen tested about 76,000 compounds, of which about 1,200 (1.6%) were called active. About 4% were inconclusive and are not listed. Calls come from the whole dose curve. This is one part of a sample in which actives are shown more often than they occur.
Classes used: active, inactive

INSERT INTO assay_data (mol_smiles, label) VALUES
  ('CN(C)c1cccc(-c2cn(C)c(=O)n3cc(COc4ccc(Cl)cc4)nc23)c1', 'inactive'),
  ('CN(C)Cc1cn2c(=O)n(C)cc(-c3cccc(OCc4ccccc4)c3)c2n1', 'inactive'),
  ('Cc1cccc(-c2cc(C3CCN(S(=O)(=O)c4ccc(C#N)cc4)CC3)[nH]n2)c1', 'inactive'),
  ('COc1ccc(CC(=O)N2CCC(Cc3nc(-c4cnccn4)no3)CC2)cc1Cl', 'inactive'),
  ('CC(C)N1Cc2cc(C(=O)Nc3cccc4c3CCCC4)sc2C1', 'inactive'),
  ('COc1ncccc1Nc1cnc2ccc(N3CCOCC3)nn12', 'inactive'),
  ('COc1ccc(CC(=O)N2CCC(Cc3nc(C(C)C)no3)CC2)cc1Cl', 'inactive'),
  ('COc1ccc(-c2nc3c(c(=O)[nH]2)CCN(C(=O)Cc2ccc(OC)c(Cl)c2)C3)cc1', 'inactive'),
  ('COc1ccc(CNC(=O)c2cc3c(s2)CN(C2CC2)C3)cc1OC', 'inactive'),
  ('COc1ccc(CC(=O)N2CCC(Cc3nc(-c4ccccc4)no3)CC2)cc1OC', 'active');

Where these numbers come from: PubChem BioAssay AID1347048
